Test system: T47D
procedureDetails: NCI tumour cell line growth inhibition, 48 h
Calls of active or inactive are those of the source. No stated cut-off is given here; in the data, active = GI50 up to about 1.1 µM and inactive = higher.
Thanks in advance; please answer with one of these: Y = active, N = inactive

These recorded examples may help you get a feel for the data.
- compound: "O=C(C[C@H](NC(=O)OCc1ccccc1)C(=O)NC1Cc2ccccc2OC1=O)OCc1ccccc1 (stereo partly specified)"
  answerLabel: "N"
- compound: "C/C(=N\\Oc1cc(Cl)ncn1)c1ccccn1"
  answerLabel: "N"
- compound: "CCOC(=O)C1C2C1C1C(C(=O)OCC)C21 (stereo unspecified)"
  answerLabel: "N"
- compound: "O=[N+]([O-])c1oc2ccc3ccccc3c2c1CCO"
  answerLabel: "N"
- compound: "Cc1ccc(OCC2OC(n3cnc4nc(Nc5ccc(Cl)c(Cl)c5)nc(Cl)c43)CC2Oc2ccc(C)cc2)cc1 (stereo unspecified)"
  answerLabel: "N"
- compound: "Cc1cc(S(=O)(=O)Nc2nc(Nc3ccc(Cl)cc3)n[nH]2)c(S)cc1Cl"
  answerLabel: "N"
- compound: "Nc1cc(C2CCCc3c2[nH]c2ccccc32)ccc1O (stereo unspecified)"
  answerLabel: "N"
- compound: "O=C(O)C1CC=CCC1C(=O)Nc1cccc(O)c1 (stereo unspecified)"
  answerLabel: "N"
- compound: "O/N=N\\c1nc(-c2cccnc2)nc2ccccc12"
  answerLabel: "N"
- compound: "C=C1[C@H](OCC(C)C)[C@@H](O)[C@@H](OC(=O)c2cccnc2)C(C)(C)/C=C/[C@H](C)[C@H](OC(C)=O)[C@@]2(O)C[C@@](C)(OC(C)=O)[C@H](OC(=O)c3ccccc3)[C@@H]2[C@H]1OC(C)=O"
  answerLabel: "N"

Query: What did the test return for O=C1c2cc(CCl)sc2C(=O)c2ccsc21 ?
Response: Y

Query: Recorded call for Cn1c(=O)c2[nH]c(/N=N\n3ccc4ccccc43)nc2n(C)c1=O ?
Response: N

Query: Give the logged outcome of this assay for the following compound: C1CSC(Sc2nc(SC3=NCCS3)nc(SC3=NCCS3)n2)=N1
Response: N

Query: Test call for this compound, please: CC1=C/C(=N/N2C(=O)/C(=C/c3ccc(Cl)cc3)N=C2c2ccccc2)CC(C)(C)C1
Response: N

Query: For N=C(N)NS(=O)(=O)c1ccc(NCc2cccc3c(=O)c4ccc(Cl)cc4oc23)cc1 , what call appears in the results of this test?
Response: N

Reference source: ChEMBL document CHEMBL1201862
